Molecular target: Mu-type opioid receptor (Homo sapiens) + Delta-type opioid receptor (Homo sapiens) (UniProt P35372+P41143)
Sequence (P35372 whole entry, looked up): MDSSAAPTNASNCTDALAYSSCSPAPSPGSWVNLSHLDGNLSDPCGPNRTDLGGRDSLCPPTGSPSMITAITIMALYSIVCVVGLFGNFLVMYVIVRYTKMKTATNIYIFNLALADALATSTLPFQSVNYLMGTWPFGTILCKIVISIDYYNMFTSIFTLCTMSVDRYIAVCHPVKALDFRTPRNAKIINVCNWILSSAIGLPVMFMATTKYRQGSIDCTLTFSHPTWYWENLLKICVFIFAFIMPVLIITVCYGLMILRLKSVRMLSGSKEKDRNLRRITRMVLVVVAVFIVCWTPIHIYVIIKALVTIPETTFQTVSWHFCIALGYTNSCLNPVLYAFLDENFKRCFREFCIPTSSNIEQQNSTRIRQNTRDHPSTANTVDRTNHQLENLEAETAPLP
Sequence (P41143 whole entry, looked up): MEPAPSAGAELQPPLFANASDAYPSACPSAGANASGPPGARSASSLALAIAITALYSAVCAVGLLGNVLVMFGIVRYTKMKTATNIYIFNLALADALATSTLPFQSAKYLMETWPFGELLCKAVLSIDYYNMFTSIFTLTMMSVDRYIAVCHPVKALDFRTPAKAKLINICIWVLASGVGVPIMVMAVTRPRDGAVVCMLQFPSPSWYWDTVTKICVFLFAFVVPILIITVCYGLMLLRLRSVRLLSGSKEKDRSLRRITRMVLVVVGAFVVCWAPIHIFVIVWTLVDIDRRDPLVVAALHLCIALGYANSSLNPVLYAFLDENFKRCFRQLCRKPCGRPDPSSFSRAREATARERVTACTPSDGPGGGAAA
Test: OPRM1-OPRD1 heterodimer agonist potency – cell-based, luminescence, counter-screen for MC4R biased agonist project, dose response (AID 602264)
Settings: cell-based OPRM1-OPRD1 heterodimerization
Calls of active or inactive are those of the source. The rule behind the calls is not given here.
Would you mind telling me the reported EC50 of each entry?

Query :: Quick one: EC50 for CC(=O)Nc1cc(-c2ccccc2F)cn2c(-c3cccc(C(F)(F)F)c3)cnc12 ?
Result :: > 92.5 µM (inactive)

Query :: Quick one: EC50 for COc1ccc(-c2cc(NC=O)c3ncc(-c4ccccc4)n3c2)cc1OC ?
Result :: > 64.6 µM (inactive)

Query :: Quick one: EC50 for CCOc1cc(NC(=O)c2cccs2)c(OCC)cc1NC(=O)c1ccco1 ?
Result :: > 92.3 µM (inactive)

---

Biological target: Mu-type opioid receptor (Homo sapiens) + Delta-type opioid receptor (Homo sapiens) (UniProt P35372+P41143)
Experiment: OPRM1-OPRD1 heterodimer agonist potency – cell-based, luminescence, counter-screen for MC4R biased agonist project, dose response (AID 602264)
Conditions: cell-based OPRM1-OPRD1 heterodimerization
Calls of active or inactive are those of the source. The rule behind the calls is not given here.
outcome.measure: EC50

Query :: Quick one: EC50 for COc1ccc(-c2csc(C3=C(O)CN(Cc4ccc(Cl)cc4)C3=N)n2)cc1OC ?
Result :: > 64.6 µM (inactive)

Query :: Quick one: EC50 for CC(=O)Nc1cc(-c2ccccc2)cn2c(-c3cccc(C(C)=O)c3)cnc12 ?
Result :: > 64.6 µM (inactive)

Query :: Quick one: EC50 for CN(C)c1ccccc1-c1cc(NC=O)c2ncc(-c3cccc(C(F)(F)F)c3)n2c1 ?
Result :: > 64.6 µM (inactive)

Query :: Quick one: EC50 for Cc1ccc(OCC(=O)NC(=S)Nc2cccc(NC(=O)c3ccccc3)c2)cc1 ?
Result :: > 64.6 µM (inactive)

Query :: Quick one: EC50 for CCC(C)c1ccc(NC(=S)NC2CCN(Cc3ccccc3)CC2)cc1 (stereo unspecified) ?
Result :: > 64.6 µM (inactive)

Query :: Quick one: EC50 for COc1cccc(CC2(CO)CCCN(Cc3[nH]c4ccc(C)cc4c3C)C2)c1 (stereo unspecified) ?
Result :: > 92.5 µM (inactive)

Query :: Quick one: EC50 for CC(=O)Nc1cc(-c2cccc(C(=O)N(C)C)c2)cn2c(-c3ccc(F)c(Cl)c3)cnc12 ?
Result :: > 64.6 µM (inactive)

Query :: Quick one: EC50 for CCN1CCN(Cc2ccc(NC(=O)c3cc(NC(=O)c4cncc(-c5ccc(C#N)cc5)c4)cc(OC)c3)cc2C(F)(F)F)CC1 ?
Result :: > 64.6 µM (inactive)

Query :: Quick one: EC50 for COc1cc(/C=C2\Oc3ccc(C#Cc4ccc(O)cc4)cc3C2=O)cc(OC)c1 ?
Result :: > 92.5 µM (inactive)

Query :: Quick one: EC50 for O=C(NC(c1ccc(Cl)cc1)c1cccnc1)C1CCN(CCOc2ccc(Cl)cc2Cl)CC1 (stereo unspecified) ?
Result :: > 92.4 µM (inactive)

---

Target: Mu-type opioid receptor (Homo sapiens) + Delta-type opioid receptor (Homo sapiens) (UniProt P35372+P41143)
Experiment: OPRM1-OPRD1 heterodimer agonist potency – cell-based, luminescence, counter-screen for MC4R biased agonist project, dose response (AID 602264)
Details: cell-based OPRM1-OPRD1 heterodimerization
Calls of active or inactive are those of the source. How the calls were made is not given here.
outcome.measure: EC50

Query :: Quick one: EC50 for COc1ccc(-c2oc3ccc(-c4ccc5c(c4)OCO5)cc3c2C#CC2(O)CCCCC2)cc1 ?
Result :: > 64.6 µM (inactive)

Query :: Quick one: EC50 for Cc1cc(C)c2nc(Nc3nc(-c4ccccc4)cc(=O)[nH]3)nc(C)c2c1 ?
Result :: > 92.5 µM (inactive)

Query :: Quick one: EC50 for COc1ccc(NC(=O)COC(=O)c2c(NC(C)=O)sc(C)c2C)cc1 ?
Result :: > 92.5 µM (inactive)

Query :: Quick one: EC50 for NC(Cc1ccc(C(F)(F)F)cc1)c1csc(NC(=O)Nc2ccccc2)n1 (stereo unspecified) ?
Result :: > 92.5 µM (inactive)

Query :: Quick one: EC50 for O=C(N/N=C/c1c[nH]c2ccccc12)C1CC1(c1ccccc1)c1ccccc1 (stereo unspecified) ?
Result :: > 92.5 µM (inactive)

Query :: Quick one: EC50 for Cc1cccc(C)c1-n1cccc1/C=C1\SC(=S)N(c2cccc(C(=O)O)c2)C1=O ?
Result :: > 92.5 µM (inactive)

Query :: Quick one: EC50 for COc1ccc(-c2cnc3c(NC(C)=O)cc(-c4ccccc4OC)cn23)cc1OC ?
Result :: > 64.6 µM (inactive)

Query :: Quick one: EC50 for COc1cccc(-c2cnc3c(NC=O)cc(-c4cc(OC)c(OC)c(OC)c4)cn23)c1 ?
Result :: > 92.5 µM (inactive)

Query :: Quick one: EC50 for Cc1cc(C)cc(OCC(O)CN2CCC(CN3C(=O)c4cccc5cccc(c45)C3=O)CC2)c1 (stereo unspecified) ?
Result :: > 64.6 µM (inactive)

Query :: Quick one: EC50 for CC(=O)Nc1cc(-c2ccc(S(C)(=O)=O)cc2)cn2c(-c3ccc(F)c(Cl)c3)cnc12 ?
Result :: > 64.6 µM (inactive)
